Biological target: Adenosine receptor A1 (Bos taurus) (UniProt P28190)
Sequence (P28190 whole entry, looked up): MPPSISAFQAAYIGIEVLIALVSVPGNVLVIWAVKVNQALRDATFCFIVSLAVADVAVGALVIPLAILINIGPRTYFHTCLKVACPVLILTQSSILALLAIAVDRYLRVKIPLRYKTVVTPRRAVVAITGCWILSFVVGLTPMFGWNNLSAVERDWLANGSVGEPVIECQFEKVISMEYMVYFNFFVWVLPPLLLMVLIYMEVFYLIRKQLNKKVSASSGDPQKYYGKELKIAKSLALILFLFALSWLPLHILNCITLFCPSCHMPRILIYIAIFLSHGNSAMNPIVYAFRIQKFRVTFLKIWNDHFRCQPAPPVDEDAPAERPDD
Experiment: NVS_GPCR_bAdoR_NonSelective: NovaScreen (NVS) G Protein-Coupled Receptor Assay for bovine Adenosine Receptor (AdoR), Non-selective Binding (AID 2283244)
Records with an inconclusive call do not appear. Activity calls are given as the source filed them. The calls were made as follows: active = hit-call score of the fitted dose curve at least 0.9, where 1 is the maximum; inconclusive = response in the unintended direction; inactive = score below 0.9.
Your reply should match one of these outcome classes. true (1) = active, false (0) = inactive

Previously resolved entries follow.
MOL	GROUP
Cn1sc(Cl)cc1=O	false (0)
O=C(O)C(F)(F)C(F)(F)C(F)(F)C(F)(F)C(F)(F)C(F)(F)C(F)(F)C(F)(F)C(F)(F)C(F)(F)F	false (0)
CC(C)(C)c1cc(O)ccc1O	false (0)

IN: Recorded test outcome, item CC(=O)[O][Hg][c]1ccccc1
OUT: true (1)
